B1: CLPTM1 (parent)
chain: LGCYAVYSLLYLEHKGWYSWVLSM

- Variants of: B1
- assayProtocol: protein stability index of a GFP-peptide fusion (GPS, HEK-293T) (PSI 1-6); higher = more stable;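 further: lentivirally expressed fusions sorted by FACS into six bins by GFP to DsRed ratio, PSI derived from sequencing read proportions per bin multiplied by bin number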
- conditionDetails: c terminus: a fixed tail appended
Use 3 as the dividing line for protein stability index, with the line itself on the label 1 side and lower values as label 0.

| mutationNotation | className |
| --- | --- |
| Y18I | label 1 |
| Y18M | label 0 |
| C3T | label 0 |
| M24A | label 0 |
| V21G | label 0 |
| C3M | label 1 |
| S23M | label 1 |
| V6A | label 1 |
| A5T | label 0 |
| V21M | label 0 |
| V21L | label 0 |
| L12Y | label 0 |
| H14C | label 0 |
| L9Y | label 0 |
| L1I | label 1 |
| A5S | label 1 |
| C3S | label 1 |
| Y18G | label 0 |
| L12E | label 1 |
| L10T | label 0 |
| V21D | label 0 |
| Y7W | label 1 |
| L9V | label 0 |
| K15L | label 1 |
| Y4G | label 1 |
| S23N | label 0 |
| L1S | label 1 |
| C3Y | label 1 |
| Y4I | label 0 |
| S8T | label 0 |
